test: gradient 5% acetonitrile 3 min, to 50% in 2 min, to 85% in 15 min, held 3 min, 100 µL/min; settings: column: Zorbax Extend-C18 2.1 x 50 mm; eluents: water / acetonitrile, 0.1% formic acid
measured.parameter: RP-LC retention time (s)

compound: Cc1ccc(C)c(NC(=O)NC2CCN(c3ccc(F)cc3)C2=O)c1 (stereo not given)
RP-LC retention time [s]: 842
//
compound: COc1ccc(NC(=O)N2CCCC(C)(C(=O)NCc3ccc(C)cc3)C2)cc1 (stereo not given)
RP-LC retention time [s]: 874
//
compound: Cc1ccc(C)c(-c2cc3c4nn(CC(=O)NCc5ccco5)c(=O)n4ccn3n2)c1
RP-LC retention time [s]: 883

A. CN(C)C(=O)CN1CCN(c2cc(C(=O)O)c3cc(NC(=O)c4cccc(Cl)c4)ccc3n2)CC1
B. COc1ccc(S(=O)(=O)N2CCCC(C(=O)Nc3ccccc3F)C2)cc1Cl (stereo not given)
Looking at A and B , which one comes out lower in RP-LC retention time terms? The response must carry the label of the picked entry.
A
(A: 612 s, B: 985 s)

====

assay: gradient 5% acetonitrile 3 min, to 50% in 2 min, to 85% in 15 min, held 3 min, 100 µL/min; conditions: column: Zorbax Extend-C18 2.1 x 50 mm; eluents: water / acetonitrile, 0.1% formic acid
measured.parameter: RP-LC retention time (s)

Some molecules with recorded RP-LC retention time:
molecule: Cc1cc(NC(=O)CSc2nnc(C(C)C)c3cnn(-c4ccc(C)c(C)c4)c23)no1
measured.parameter: RP-LC retention time
value.measured: 845
--
molecule: Cn1ccc2cc(CCC(=O)N3CCN(c4ccc(Cl)cc4)CC3)ccc21
measured.parameter: RP-LC retention time
value.measured: 1050
--
molecule: Cc1nnc(-c2cc(NC(=O)Cc3c[nH]c4ccccc34)c(C)s2)o1
measured.parameter: RP-LC retention time
value.measured: 794
--
molecule: O=C(C1=CN(c2cc(Cl)cc(Cl)c2)c2cc(F)ccc2S1(=O)=O)N1CCOCC1
measured.parameter: RP-LC retention time
value.measured: 875
--
molecule: Cc1cc2c(c(=O)n(-c3ccc(F)cc3)c(=O)n2CC(=O)Nc2cccc(C(F)(F)F)c2)n1C
measured.parameter: RP-LC retention time
value.measured: 933

P. CCOc1ccc(-c2ccc(=O)n(Cc3nc(-c4ccc(OC(C)C)cc4)no3)n2)cc1
Q. COc1ccccc1CCc1nc(-c2ccc3oc(C)nc3c2)no1
Of the two listed items, P and Q , which carries the larger RP-LC retention time figure? The response must carry the label of the picked entry.
Q

A. O=C(c1cncc(Br)c1)N1CCN(c2ccc(-c3cccs3)nn2)CC1
B. Cc1nc2cc(-c3noc(-c4ccc(F)cc4)n3)ccc2n(C)c1=O
Of the two listed items, A and B , which carries the larger RP-LC retention time figure? The response must carry the label of the picked entry.
B
(B: 1030 s, A: 651 s)

I. O=C(NCc1ccccn1)c1c(OCC2CC2)cc(=O)n2c1CCCCC2
II. O=S(=O)(NCCc1noc(-c2ccccc2)n1)c1ccc2c(c1)OCCO2
Of the two listed items, I and II , which carries the larger RP-LC retention time figure? The response must carry the label of the picked entry.
II
(II: 883 s, I: 586 s)

====

assay: gradient 5% acetonitrile 3 min, to 50% in 2 min, to 85% in 15 min, held 3 min, 100 µL/min; conditions: column: Zorbax Extend-C18 2.1 x 50 mm; eluents: water / acetonitrile, 0.1% formic acid
measured.parameter: RP-LC retention time (s)

Some molecules with recorded RP-LC retention time:
molecule: CCNc1cc(N2CCCC(CCC(=O)Nc3ccc(OC)cc3OC)C2)ncn1 (stereo not given)
RP-LC retention time, s: 671
//
molecule: Cc1ccc(CNC(=O)Cn2nc3n(c2=O)CCCCC3)cc1
RP-LC retention time, s: 675
//
molecule: O=C(O)c1cncc(NS(=O)(=O)c2ccc3c(c2)OCCO3)c1
RP-LC retention time, s: 611
//
molecule: COc1ccc(C2C(C(=O)NCCCN3CCCCCC3)CCC(=O)N2c2ccc(OC)cc2)cc1 (stereo not given)
RP-LC retention time, s: 589
//
molecule: O=C(Cn1cc(-c2nc(-c3ccc(Cl)cc3)no2)ccc1=O)N1CCCC1
RP-LC retention time, s: 959

I. CCn1c(=O)n(CC(=O)NCCC2=CCCCC2)c(=O)c2cnc(-c3ccccc3)nc21
II. Cc1cc(C)cc(NC(=O)N2CCCC(Cn3c(C4CC4)nc4cccnc43)C2)c1 (stereo not given)
III. CC1(C)CCC=[N+]1[O-]
With regard to RP-LC retention time, arrange the entries in ascending order, please. Order the labels as requested and give them as your answer.
III, II, I

====

assay: gradient 5% acetonitrile 3 min, to 50% in 2 min, to 85% in 15 min, held 3 min, 100 µL/min; settings: column: Zorbax Extend-C18 2.1 x 50 mm; eluents: water / acetonitrile, 0.1% formic acid
measured.parameter: RP-LC retention time (s)

compound: Cc1nc(-c2ccc(-n3cc(C(=O)Nc4ccc(Br)cc4F)c(C)n3)cc2)no1
RP-LC retention time [s]: 962
--
compound: CCOc1ccc(C2c3[nH]c4ccccc4c3CCN2C(=O)C2CCC2)cc1 (centres undefined)
RP-LC retention time [s]: 1210
--
compound: CC(C)(C)NC(=O)Cn1ccn2nc(-c3ccccc3)c(CO)c2c1=O
RP-LC retention time [s]: 721

a. CCc1cc(C(=O)NCC2CCCO2)nc2cc(-c3ccccn3)nn12 (centres undefined)
b. O=C(Nc1ccc(F)cc1)c1c(O)c2cccnc2n(-c2ccccc2)c1=O
Looking at a and b , which one comes out lower in RP-LC retention time terms? The response must carry the label of the picked entry.
a

a. O=C(NCCc1cccs1)c1cc2n(n1)CCCN(Cc1cccc(F)c1)C2=O
b. COc1ccc(OCC(=O)N2CCN(c3nccn3-c3ccccc3F)CC2)cc1
c. CCOc1ccc(-c2nc(-c3ccc4c(c3)oc(=O)n4C(C)C)no2)cc1OCC
Hello, I need these entries ordered by RP-LC retention time, highest reading first. Thanks! Order the labels as requested and give them as your answer.
c, a, b
(c: 1260 s, a: 843 s, b: 573 s)

====

test: gradient 5% acetonitrile 3 min, to 50% in 2 min, to 85% in 15 min, held 3 min, 100 µL/min; settings: column: Zorbax Extend-C18 2.1 x 50 mm; eluents: water / acetonitrile, 0.1% formic acid
measured.parameter: RP-LC retention time (s)

Some compounds with recorded RP-LC retention time:
compound: Cc1cc(C)c2sc(N(CCCn3ccnc3)C(=O)C3COc4ccccc4O3)nc2c1 (stereo not given)
result.unit: s
value.measured: 667
--
compound: O=C(CN1C(=O)NC(c2ccc(Cl)cc2)C2=C1COC2=O)NCc1ccccc1Cl (stereo not given)
result.unit: s
value.measured: 811
--
compound: Cc1cccc(-n2ncc(C(=O)N3CCN(c4ccccn4)CC3)c2-n2cccc2)c1
result.unit: s
value.measured: 688

P. CCn1cc(C)c(C(=O)O)c1CC(=O)N(C)Cc1ccccc1
Q. Cn1cc(-c2nc(C(=O)Nc3cc(F)ccc3F)cs2)c2cccnc21
Looking at P and Q , which one comes out lower in RP-LC retention time terms? The response must carry the label of the picked entry.
P

====

assay: gradient 5% acetonitrile 3 min, to 50% in 2 min, to 85% in 15 min, held 3 min, 100 µL/min; conditions: column: Zorbax Extend-C18 2.1 x 50 mm; eluents: water / acetonitrile, 0.1% formic acid
measured.parameter: RP-LC retention time (s)

Some molecules with recorded RP-LC retention time:
molecule: CN(C(=O)Cn1nc(Cc2ccncc2)c2ccccc2c1=O)c1cccc(Cl)c1
value.measured: 644
--
molecule: Cc1cc2[nH]c(C(=O)Nc3ccc(Cl)cc3Cl)c(CN3CCOCC3)c2s1
value.measured: 759
--
molecule: CC(C)Oc1ccc(-c2noc(Cc3nnc(-c4ccccc4)o3)n2)cc1
value.measured: 1100
--
molecule: Cc1cc(C)cc(NC(=O)N2CCC(n3cnc4ccc(C)cc4c3=O)CC2)c1
value.measured: 838
--
molecule: Cn1cnc2c(C(=O)NCC3CCCO3)nn(-c3ccc(Cl)cc3)c2c1=O (centres undefined)
value.measured: 715

P. COc1ccc(NC(=O)C2c3cc(OC)c(OC)cc3C(=O)N(C)C2c2cccnc2)cc1Cl (centres undefined)
Q. CCCCN1C(=O)C(NC(=O)c2ccccc2OC)(C(F)(F)F)C(C(=O)OC)=C1C (centres undefined)
Looking at P and Q , which one comes out lower in RP-LC retention time terms? The response must carry the label of the picked entry.
P
(P: 660 s, Q: 1070 s)

====

test: gradient 5% acetonitrile 3 min, to 50% in 2 min, to 85% in 15 min, held 3 min, 100 µL/min; conditions: column: Zorbax Extend-C18 2.1 x 50 mm; eluents: water / acetonitrile, 0.1% formic acid
measured.parameter: RP-LC retention time (s)

molecule: CC(C)NC(=O)c1ccc(OCC2CCCN2C(=O)c2cc(F)ccc2Cl)cc1 (stereo unspecified)
RP-LC retention time [s]: 881

1. Cc1cc(=O)n(CC(=O)Nc2ccc(F)c(F)c2)c(N2CCCC2)n1
2. CNC(=O)c1c(NC(=O)COc2ccc(Cl)cc2)sc2c1CCC2
Looking at 1 and 2 , which one comes out lower in RP-LC retention time terms? The response must carry the label of the picked entry.
1
(1: 671 s, 2: 1100 s)

P. CCn1ccc(C(=O)N2CCC(N3C(=O)C(O)C34CCCCC4)CC2)n1 (stereo unspecified)
Q. CCOC(=O)c1cccc(N2C=C(C(=O)OC)S(=O)(=O)c3cc(F)ccc32)c1
Of the two listed items, P and Q , which carries the larger RP-LC retention time figure? The response must carry the label of the picked entry.
Q

a. Cc1nc(C)c(C(=O)NCc2c(-c3ccccc3)nc3sc(C)nn23)s1
b. Cc1cc(C)c2nc(-c3ccccc3Br)cc(C(=O)O)c2c1
Looking at a and b , which one comes out lower in RP-LC retention time terms? The response must carry the label of the picked entry.
a
(a: 737 s, b: 1130 s)
